These data points were gathered from ChEMBL document CHEMBL1156996.

- TEST METHOD NOTES: inhibition of Cryptococcus neoformans recombinant Can2 after 15 mins by stopped-flow CO2 hydration assay
ENDPOINT: log10 Ki (log10 of the value in nM)
// do not treat as linear: log10 of Ki, unit nM

Example results:
[
  {
    "CHEM SMILES": "Cc1cc(C)[n+](NC(=O)c2[nH]c3ccc(S(N)(=O)=O)cc3c2-c2c(F)c(F)c(F)c(F)c2F)c(C)c1.[O-][Cl+3]([O-])([O-])[O-]",
    "ENDPOINT": "log10 Ki",
    "QUANTITATIVE RESULT": 1.78
  },
  {
    "CHEM SMILES": "NNC(=O)c1[nH]c2ccc(S(N)(=O)=O)cc2c1-c1ccc(Cl)cc1",
    "ENDPOINT": "log10 Ki",
    "QUANTITATIVE RESULT": 1.85
  },
  {
    "CHEM SMILES": "NNC(=O)c1[nH]c2ccc(S(N)(=O)=O)cc2c1-c1c(F)c(F)c(F)c(F)c1F",
    "ENDPOINT": "log10 Ki",
    "QUANTITATIVE RESULT": 2.01
  },
  {
    "CHEM SMILES": "NNC(=O)c1[nH]c2ccc(S(N)(=O)=O)cc2c1-c1ccccc1",
    "ENDPOINT": "log10 Ki",
    "QUANTITATIVE RESULT": 1.86
  }
]

IN: Which log10 Ki reading was recorded for the compound NNC(=O)c1[nH]c2ccc(S(N)(=O)=O)cc2c1-c1cccc(Br)c1 ?
OUT: 1.97

IN: One more compound: Cc1cccc(-c2c(C(=O)NN)[nH]c3ccc(S(N)(=O)=O)cc23)c1
OUT: 0.96

====

Ki values, listed per item
- TEST METHOD NOTES: inhibition of Cryptococcus neoformans recombinant Can2 after 15 mins by stopped-flow CO2 hydration assay
Numbers only; they are read as µM.

[
  {
    "CHEM SMILES": "NNC(=O)c1[nH]c2ccc(S(N)(=O)=O)cc2c1-c1ccc(Br)cc1",
    "RESULT UNIT": "µM",
    "Ki": 0.118
  },
  {
    "CHEM SMILES": "COc1cccc(-c2c(C(=O)NN)[nH]c3ccc(S(N)(=O)=O)cc23)c1",
    "RESULT UNIT": "µM",
    "Ki": 0.012
  }
]

IN: Which Ki reading was recorded for the compound NNC(=O)c1[nH]c2ccc(S(N)(=O)=O)cc2c1-c1ccccc1Br ?
OUT: 0.062

IN: One more compound: Cc1cccc(-c2c(C(=O)N[n+]3c(C)cc(C)cc3C)[nH]c3ccc(S(N)(=O)=O)cc23)c1.[O-][Cl+3]([O-])([O-])[O-]
OUT: 0.0061

IN: One more compound: Cc1cc(C)[n+](NC(=O)c2[nH]c3ccc(S(N)(=O)=O)cc3c2-c2ccc(F)cc2)c(C)c1.[O-][Cl+3]([O-])([O-])[O-]
OUT: 0.0087

IN: One more compound: NNC(=O)c1[nH]c2ccc(S(N)(=O)=O)cc2c1-c1cccc(F)c1
OUT: 0.0072

IN: One more compound: Cc1cc(C)[n+](NC(=O)c2[nH]c3ccc(S(N)(=O)=O)cc3c2-c2cccc(Cl)c2)c(C)c1.[O-][Cl+3]([O-])([O-])[O-]
OUT: 0.0044

IN: One more compound: Cc1cc(C)[n+](NC(=O)c2[nH]c3ccc(S(N)(=O)=O)cc3c2-c2ccccc2Br)c(C)c1.[O-][Cl+3]([O-])([O-])[O-]
OUT: 0.0121
